target: Carbonic anhydrase 9 (Homo sapiens)
For each entry below, report its pKi value.
Lab note — pKi values are minus log10 of concentrations in M.

Inquiry: Entry N/C(=N\S(=O)(=O)c1ccccc1SCc1ccccc1)NNc1nc(Cl)nc(Nc2cccc(S(N)(=O)=O)c2)n1 , system Carbonic anhydrase 9 (Homo sapiens): what pKi was measured?
Reply text: 5.40

Inquiry: Entry N/C(=N\S(=O)(=O)c1ccccc1SCc1cccc2ccccc12)NNc1nc(Cl)nc(Nc2cccc(S(N)(=O)=O)c2)n1 , system Carbonic anhydrase 9 (Homo sapiens): what pKi was measured?
Reply text: 5.47

Inquiry: Entry N/C(=N\S(=O)(=O)c1ccccc1SCc1ccccc1)NNc1nc(Cl)nc(NCc2ccc(S(N)(=O)=O)cc2)n1 , system Carbonic anhydrase 9 (Homo sapiens): what pKi was measured?
Reply text: 7.33

Inquiry: Entry N/C(=N\S(=O)(=O)c1ccccc1SCc1cccc(C(F)(F)F)c1)NNc1nc(Cl)nc(Nc2cccc(S(N)(=O)=O)c2)n1 , system Carbonic anhydrase 9 (Homo sapiens): what pKi was measured?
Reply text: 5.48

----------
test system: HaCaT; experiment: Cytotoxicity against human HaCaT cells after 72 hrs by MTT assay; format: cell-based
MEASURED QUANTITY: IC50 (µM)
API: value field is a number in µM; no unit string.

Inquiry: // query IC50 value for entry N/C(=N\S(=O)(=O)c1ccccc1SCc1cccc2ccccc12)NNc1nc(Cl)nc(Nc2ccc(S(N)(=O)=O)cc2)n1
Reply text: 61

----------
Quick record: Ki, Carbonic anhydrase 1 (Homo sapiens, UniProt P00915).
API: value field is a number in nM; no unit string.

Inquiry: // query Ki value for entry N/C(=N\S(=O)(=O)c1ccccc1SCc1ccccc1)NNc1nc(Cl)nc(Nc2cccc(S(N)(=O)=O)c2)n1
Reply text: 396

Inquiry: // query Ki value for entry N/C(=N\S(=O)(=O)c1ccccc1SCc1ccc(C(F)(F)F)cc1)NNc1nc(Cl)nc(Nc2ccc(S(N)(=O)=O)cc2)n1
Reply text: 386

Inquiry: // query Ki value for entry N/C(=N\S(=O)(=O)c1ccccc1SCc1ccc(C(F)(F)F)cc1)NNc1nc(Cl)nc(Nc2cccc(S(N)(=O)=O)c2)n1
Reply text: 536

Inquiry: // query Ki value for entry N/C(=N\S(=O)(=O)c1ccccc1SCc1cccc(C(F)(F)F)c1)NNc1nc(Cl)nc(NCc2ccc(S(N)(=O)=O)cc2)n1
Reply text: 219

----------
test system: HeLa; experiment: Cytotoxicity against human HeLa cells after 72 hrs by MTT assay; format: functional, cell-based
pIC50: −log10 of the molar value.
MEASURED QUANTITY: pIC50

Inquiry: // query pIC50 value for entry N/C(=N\S(=O)(=O)c1ccccc1SCc1cccc(C(F)(F)F)c1)NNc1nc(Cl)nc(NCc2ccc(S(N)(=O)=O)cc2)n1
Reply text: < 4.00

Inquiry: // query pIC50 value for entry N/C(=N\S(=O)(=O)c1ccccc1SCc1ccc(C(F)(F)F)cc1)NNc1nc(Cl)nc(Nc2ccc(S(N)(=O)=O)cc2)n1
Reply text: < 4.00

Inquiry: // query pIC50 value for entry N/C(=N\S(=O)(=O)c1ccccc1SCc1cccc(C(F)(F)F)c1)NNc1nc(Cl)nc(Nc2cccc(S(N)(=O)=O)c2)n1
Reply text: < 4.00

Inquiry: // query pIC50 value for entry N/C(=N\S(=O)(=O)c1ccccc1SCc1cccc2ccccc12)NNc1nc(Cl)nc(Nc2ccc(S(N)(=O)=O)cc2)n1
Reply text: 4.77

Inquiry: // query pIC50 value for entry N/C(=N\S(=O)(=O)c1ccccc1SCc1ccccc1)NNc1nc(Cl)nc(Nc2ccc(S(N)(=O)=O)cc2)n1
Reply text: < 4.00

----------
For each entry below, report its pKi value.
Lab note — pKi values are minus log10 of concentrations in M.

Inquiry: Entry N/C(=N\S(=O)(=O)c1ccccc1SCc1ccc(C(F)(F)F)cc1)NNc1nc(Cl)nc(NCc2ccc(S(N)(=O)=O)cc2)n1 , system Carbonic anhydrase 2 (Homo sapiens, UniProt P00918): what pKi was measured?
Reply text: 7.05

Inquiry: Entry N/C(=N\S(=O)(=O)c1ccccc1SCc1cccc2ccccc12)NNc1nc(Cl)nc(Nc2cccc(S(N)(=O)=O)c2)n1 , system Carbonic anhydrase 2 (Homo sapiens, UniProt P00918): what pKi was measured?
Reply text: 6.03

Inquiry: Entry N/C(=N\S(=O)(=O)c1ccccc1SCc1cccc2ccccc12)NNc1nc(Cl)nc(NCc2ccc(S(N)(=O)=O)cc2)n1 , system Carbonic anhydrase 2 (Homo sapiens, UniProt P00918): what pKi was measured?
Reply text: 6.73

Inquiry: Entry N/C(=N\S(=O)(=O)c1ccccc1SCc1ccccc1)NNc1nc(Cl)nc(Nc2ccc(S(N)(=O)=O)cc2)n1 , system Carbonic anhydrase 2 (Homo sapiens, UniProt P00918): what pKi was measured?
Reply text: 7.08
